Values from the supplement of paper PMC8728848

- targetDesc: GlcNAc(b1-2)Man(a1-3)[GlcNAc(b1-2)Man(a1-6)]Man(b1-4)GlcNAc(b1-4)GlcNAc
- test: glycan array binding signal (z-score within array); higher = stronger binding
- experimentalConditions: glycan notation: IUPAC condensed, linker removed
The sample as a whole holds a higher share of the strongest signals than the screen did.
Here, each record is paired with measured glycan array binding signal (z-score) data.
The answer should be written as a number, with no unit following it.

-- ask Any idea what glycan array binding signal (z-score) was measured for SfaEH (Escherichia coli), Q1RDG5 (protein) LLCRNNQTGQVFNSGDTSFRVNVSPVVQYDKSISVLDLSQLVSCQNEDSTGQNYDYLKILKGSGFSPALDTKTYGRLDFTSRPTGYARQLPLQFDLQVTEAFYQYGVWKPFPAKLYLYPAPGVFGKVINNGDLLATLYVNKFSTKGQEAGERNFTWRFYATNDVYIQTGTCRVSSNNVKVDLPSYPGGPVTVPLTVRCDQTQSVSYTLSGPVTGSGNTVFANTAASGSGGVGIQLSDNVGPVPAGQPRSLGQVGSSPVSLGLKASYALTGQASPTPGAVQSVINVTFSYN ?
-- reply 0.345

Further cases:
-- ask Any idea what glycan array binding signal (z-score) was measured for RBMC2 (Vibrio cholerae) (protein) KISVRSGFAIDAIGASASTLVGGTGGNLNAAVNVKDIKAIDLTWGKYYWGGYHLLALDFRMSNGSVISMGSKNYAYSKQTERFTVPAGSRIKGIKAWTAGWLLDGVQFELA ?
-- reply 3.67

-- ask Any idea what glycan array binding signal (z-score) was measured for SAG3 (Toxoplasma gondii), Q9BJ39 (protein) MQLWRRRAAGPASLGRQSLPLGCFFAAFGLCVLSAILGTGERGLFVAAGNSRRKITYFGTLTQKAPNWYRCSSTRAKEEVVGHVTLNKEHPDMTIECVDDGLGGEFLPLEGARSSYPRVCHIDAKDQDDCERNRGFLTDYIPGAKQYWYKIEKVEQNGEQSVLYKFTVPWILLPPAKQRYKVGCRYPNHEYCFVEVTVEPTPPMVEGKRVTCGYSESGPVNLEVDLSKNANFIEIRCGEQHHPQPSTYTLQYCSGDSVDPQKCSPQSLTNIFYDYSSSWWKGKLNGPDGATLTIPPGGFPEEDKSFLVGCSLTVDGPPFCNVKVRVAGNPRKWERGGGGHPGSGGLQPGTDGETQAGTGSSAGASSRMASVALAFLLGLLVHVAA ?
-- reply -0.352

-- ask Any idea what glycan array binding signal (z-score) was measured for SSR2 (Sclerotium rolfsii) (protein) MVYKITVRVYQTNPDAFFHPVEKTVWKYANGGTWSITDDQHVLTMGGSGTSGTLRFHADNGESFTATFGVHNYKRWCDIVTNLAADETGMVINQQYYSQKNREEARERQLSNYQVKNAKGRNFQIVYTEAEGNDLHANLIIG ?
-- reply 6.77

-- ask Any idea what glycan array binding signal (z-score) was measured for SSR1 (Sclerotium rolfsii), A0A0M3KL30 (protein) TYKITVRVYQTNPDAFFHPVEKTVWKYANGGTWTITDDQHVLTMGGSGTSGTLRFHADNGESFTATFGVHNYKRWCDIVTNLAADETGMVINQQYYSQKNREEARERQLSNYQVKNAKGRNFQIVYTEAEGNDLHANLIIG ?
-- reply 5.28

-- ask Any idea what glycan array binding signal (z-score) was measured for AFCNVH (Aspergillus fumigatus) (protein) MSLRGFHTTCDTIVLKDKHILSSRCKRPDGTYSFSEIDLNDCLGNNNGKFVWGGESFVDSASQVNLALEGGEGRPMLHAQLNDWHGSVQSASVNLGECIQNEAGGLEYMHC ?
-- reply -0.164
